test.system: SIRT1 (Homo sapiens)
Sequence (Q96EB6 whole entry): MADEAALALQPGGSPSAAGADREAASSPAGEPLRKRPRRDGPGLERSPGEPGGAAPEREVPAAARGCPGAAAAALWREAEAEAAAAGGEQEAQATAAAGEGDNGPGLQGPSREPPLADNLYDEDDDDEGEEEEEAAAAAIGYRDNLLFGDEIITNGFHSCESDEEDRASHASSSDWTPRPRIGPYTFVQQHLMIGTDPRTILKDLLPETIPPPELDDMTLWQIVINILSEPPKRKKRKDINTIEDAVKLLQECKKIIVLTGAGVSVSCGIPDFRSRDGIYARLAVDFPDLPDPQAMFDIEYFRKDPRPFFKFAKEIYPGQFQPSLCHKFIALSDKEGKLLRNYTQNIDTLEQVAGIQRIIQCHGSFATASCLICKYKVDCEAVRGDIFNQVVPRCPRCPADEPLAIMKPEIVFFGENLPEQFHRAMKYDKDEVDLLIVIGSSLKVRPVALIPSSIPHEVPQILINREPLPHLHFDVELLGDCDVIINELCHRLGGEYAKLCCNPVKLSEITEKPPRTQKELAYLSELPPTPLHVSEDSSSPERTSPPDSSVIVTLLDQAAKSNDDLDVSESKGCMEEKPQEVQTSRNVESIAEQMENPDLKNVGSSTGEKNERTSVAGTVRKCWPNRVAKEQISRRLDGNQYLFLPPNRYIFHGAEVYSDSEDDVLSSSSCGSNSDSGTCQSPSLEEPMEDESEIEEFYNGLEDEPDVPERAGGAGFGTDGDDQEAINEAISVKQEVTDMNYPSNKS
method.summary: Trp mass spectrometry assay of SIRT1 activity
Assay type: biochemical
particulars: Trp peptide substrate; concentration giving 150% activation of SIRT1
experimental.endpoint: Trp EC1.5

Illustrative cases are given below, each with its answer.
Cc1cc2ncc(NC(=O)c3cccc(N4CCC4)n3)n2nc1-c1ccccc1C(F)(F)F ... B (EC1.5 1-25 μM)
Cc1cc(C)nc(NC(=O)c2cnc3ccc(N4CC[C@H](F)C4)nn23)c1 ... B (EC1.5 1-25 μM)
O=C(Nc1cccnc1)c1ncn2ccc(-c3ccccc3C(F)(F)F)nc12 ... B (EC1.5 1-25 μM)
O=C(Nc1cccc(N2CCOCC2)n1)c1ncn2ccc(-c3ccccc3C(F)(F)F)nc12 ... A (EC1.5<1 μM)
Cc1cc(C)nc(C(=O)Nc2cnn3ccc(-c4ccccc4C(F)(F)F)nc23)c1 ... C (EC1.5>25 μM)

Ask: Form field: reported Trp EC1.5 of O=C(Nc1ccc(F)cn1)c1cnn2ccc(-c3ccccc3C(F)(F)F)nc12
Reply: B (EC1.5 1-25 μM)

Ask: Form field: reported Trp EC1.5 of O=C(Nc1cccc(N2CCOCC2)n1)c1cnc2ccc(N3CCCC(C(F)(F)F)C3)nn12 (stereo not drawn)
Reply: A (EC1.5<1 μM)

Ask: Form field: reported Trp EC1.5 of Cc1nc2ccc(-c3ccccc3C(F)(F)F)nn2c1C(=O)Nc1cnccn1
Reply: B (EC1.5 1-25 μM)

* * *

Below, each entry is listed with its recorded Emax.
test.system: SIRT1 (Homo sapiens)
method.summary: Trp mass spectrometry assay of SIRT1 activity
Assay type: biochemical
particulars: percent maximum fold activation of SIRT1; Trp peptide substrate; read-out: Trp % Fold Act

Illustrative cases are given below, each with its answer.
COc1nccc(NC(=O)c2cnn3ccc(N4CCC[C@H]4C(F)(F)F)nc23)n1 ... ≥ 350%
O=C(Nc1cccc(CN2CCOCC2)n1)c1cnc2ccc(-c3c(F)cccc3F)nn12 ... < 350%
O=C(Nc1ccccn1)c1cnn2ccc(N3CCC(C(F)(F)F)CC3)nc12 ... ≥ 350%
O=C(Nc1cccc(CN2CCOCC2)n1)c1cnc2ccc(-c3cccc(C(F)(F)F)c3)nn12 ... < 350%
O=C(Nc1cnccn1)c1cnc2ccc(-c3ccccc3Cl)nn12 ... < 350%

Ask: Form field: reported Emax of Cc1nn2ccc(N3CCC[C@@H]3C(F)(F)F)nc2c1C(=O)Nc1cncc(F)c1
Reply: ≥ 350%

Ask: Form field: reported Emax of CC1CCCN1c1ccn2ncc(C(=O)Nc3cccnc3)c2n1 (stereo not drawn)
Reply: ≥ 350%

Ask: Form field: reported Emax of O=C(Nc1cnccn1)c1cnn2ccc(N3CCC(C(F)(F)F)CC3)nc12
Reply: ≥ 350%

Ask: Form field: reported Emax of O=C(Nc1ccccn1)c1cnc2ccc(-c3c(F)cccc3F)nn12
Reply: < 350%

Ask: Form field: reported Emax of O=C(Nc1ccncn1)c1cnn2ccc(N3CCC[C@@H]3C(F)(F)F)nc12
Reply: < 350%

Ask: Form field: reported Emax of Cn1cc(-c2ccc3ncc(C(=O)Nc4cccc(N5CCOCC5)n4)n3n2)cn1
Reply: < 350%

Ask: Form field: reported Emax of O=C(Nc1ccncn1)c1cnc2ccc(-c3ccccc3C(F)(F)F)nn12
Reply: < 350%

Ask: Form field: reported Emax of O=C(Nc1cccc(N2CCOCC2)n1)c1cnc2ccc(-c3ccccc3Cl)nn12
Reply: < 350%

Ask: Form field: reported Emax of O=C(Nc1ccncn1)c1cnn2ccc(N3CCC[C@H]3C(F)(F)F)nc12
Reply: ≥ 350%

Ask: Form field: reported Emax of C[C@H]1CCCN1c1ccc2ncc(C(=O)Nc3cnccn3)n2n1
Reply: < 350%

Ask: Form field: reported Emax of O=C(Nc1cccc(CN2CCOCC2)n1)c1cnc2ccc(-c3ccccc3Cl)nn12
Reply: < 350%

Ask: Form field: reported Emax of C[C@@H]1CN(c2ccc3ncc(C(=O)Nc4cccnn4)n3n2)CCO1
Reply: ≥ 350%

Ask: Form field: reported Emax of Cc1cncc(NC(=O)c2cnn3ccc(N4CCC(C(F)(F)F)CC4)nc23)c1
Reply: ≥ 350%
